# credit: the supplement of paper PMC11208160

What recombinant barcode read abundance (log10) was measured for each of the following?
Protocol details: recombinant barcode read abundance after kanamycin selection (control-corrected) (log10(CPM+1)); higher = more efficient recombination; sequences stand for … in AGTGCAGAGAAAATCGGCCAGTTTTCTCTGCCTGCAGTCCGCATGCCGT…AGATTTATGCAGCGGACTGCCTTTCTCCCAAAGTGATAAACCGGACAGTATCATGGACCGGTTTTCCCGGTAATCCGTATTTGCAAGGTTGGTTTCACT; site = the 11-nt target;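 also: IS621 recombinase and bridge RNA in Escherichia coli cells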
Just the number, please.

Suppose we examine the sequence CAGCGGTCTTGGGTTCTAACCTGTTGCGA (site CAGCGGTCTTC) ; what recombinant barcode read abundance (log10) value has been reported? 1.65

Item TAGGCCACTTGGGTTCTAACCTGTTGCCT (site TAGGCCACTAC) has what recorded recombinant barcode read abundance (log10)? 0.122

Request the reported recombinant barcode read abundance (log10) associated with AAGTTTCCTTGGGTTCTAACCTGTTGCAT (site AAGTTTCCTAT) 0.22

Look up recombinant barcode read abundance (log10): TAGGCGCCTTGGGTTCTAACCTGTTGCGT (site TAGGCGCCTAT) 0.249

Data request, read-out recombinant barcode read abundance (log10), for AGGAACCCTTGGGTTCTAACCTGTTGCTA (site AGGAACCCTTA) 1.44

Could you tell me which recombinant barcode read abundance (log10) is on file for GCAATATCTTGGGTTCTAACCTGTTGCCT (site AAGTCTCCTCT) ? 0.0108

Request the reported recombinant barcode read abundance (log10) associated with CTCGGATCTTGGGTTCTAACCTGTTGCCA (site CTCGGAGCTCG) 0.167

Give its recombinant barcode read abundance (log10) value. Item: CGTTCTCCTTGGGTTCTAACCTGTTGCCT (site TGTTCTCCTAG) 0.121

May I ask what recombinant barcode read abundance (log10) has been recorded for GGGGCACCTTGGGTTCTAACCTGTTGCCT (site GGGGCACCTAG) ? 1.15

Can you share its recombinant barcode read abundance (log10)? I mean this sequence: GTAGTACCTTGGGTTCTAACCTGTTGCCT (site GTAGTAGCTAG) 0.247

Name the reported recombinant barcode read abundance (log10) value associated with the sequence CTCTGGGCTTGGGTTCTAACCTGTTGCCT (site CTCTGGGCTAG) 0.15

Quick one: recombinant barcode read abundance (log10) for GACAGACCTTGGGTTCTAACCTGTTGCCT (site AACAGACCTAG) ? 0.83

Look at this sequence and give its reported recombinant barcode read abundance (log10). ACGAAGGCTTGGGTTCTAACCTGTTGCCT (site ACGAAGGCTAG) 0.696

For the sequence shown here, GTGTCTCCTTGGGTTCTAACCTGTTGCAT (site GTGTTTCCTAT) , give the reported recombinant barcode read abundance (log10). 0.243

Item under review: TCGCAAGCTTGGGTTCTAACCTGTTGCCT (site TCTCCAGCTAG) . Reported recombinant barcode read abundance (log10)? 0.43

Which measured recombinant barcode read abundance (log10) value corresponds to TCCGCTCCTTGGGTTCTAACCTGTTGCCT (site TCCGCTGCTAG) ? 0.215

Sample GGGGCACCTTGGGTTCTAACCTGTTGCCT (site GGGGCACCTAA) — what was its recombinant barcode read abundance (log10)? 0.216

// recombinant barcode read abundance (log10) lookup, key: CTATTGTCTTGGGTTCTAACCTGTTGCGA (site CTATTGTCTGC) 0.0565

Consider the sequence CCTCCCTCTTGGGTTCTAACCTGTTGCTA (site CCTCCCTCTTA) and give its measured recombinant barcode read abundance (log10). 1.84

Entry GCTCGAACTTGGGTTCTAACCTGTTGCCT (site GCCCGAACTAG) : reported recombinant barcode read abundance (log10) = ? 0.138

Would you mind telling me what recombinant barcode read abundance (log10) value was observed for CAAACTCCTTGGGTTCTAACCTGTTGCCT (site CAAACTCCTAC) ? 0.0217

Reported recombinant barcode read abundance (log10) for ACAGCTACTTGGGTTCTAACCTGTTGCCT (site ACAGCTACTAG) : what is it? 1.84

# query: recombinant barcode read abundance (log10) of entry TGTTGTGCTTGGGTTCTAACCTGTTGCCT (site TGTTGTGCTAG) 0.109

Fill in: recombinant barcode read abundance (log10) of GGGGTCCCTTGGGTTCTAACCTGTTGCTT (site CTCAAAGCTTC) is ___ 0.0621

Any idea what its recombinant barcode read abundance (log10) is? The sequence is TTCTGAGCTTGGGTTCTAACCTGTTGCCT (site TTCTGTGCTAG) 0.0128

What recombinant barcode read abundance (log10) value was documented for this sequence, ATAGGTCCTTGGGTTCTAACCTGTTGCCT (site ATGGGTCCTAG) ? 0.189

// recombinant barcode read abundance (log10) lookup, key: CATTCCACTTGGGTTCTAACCTGTTGCCT (site CATTCCACTAG) 0.369

Quick check: recombinant barcode read abundance (log10) of CCTAATCCTTGGGTTCTAACCTGTTGCGT (site CCTAAACCTAC) ? 0.0528

Fill in: recombinant barcode read abundance (log10) of TCGGAGTCTTGGGTTCTAACCTGTTGCCT (site TCGGAGTCTAT) is ___ 0.503

Which recombinant barcode read abundance (log10) reading was recorded for the sequence TGCGACCCTTGGGTTCTAACCTGTTGCTT (site TGGGACCCTAT) ? 0.312

Can you look up the measured recombinant barcode read abundance (log10) of GACAGTACTTGGGTTCTAACCTGTTGCCT (site AACAGTACTAG) for me? 0.165

Any idea what its recombinant barcode read abundance (log10) is? The sequence is TTAGACTCTTGGGTTCTAACCTGTTGCCT (site TTCGACGCTAG) 0.172

Entry under review: CAAACTCCTTGGGTTCTAACCTGTTGCAT (site CAAACTCCTAT) . Reported recombinant barcode read abundance (log10)? 0.713

May I ask what recombinant barcode read abundance (log10) has been recorded for TCTGGGGCTTGGGTTCTAACCTGTTGCTG (site TCTGGGGCTCA) ? 2.04

Sample GGTGCTCCTTGGGTTCTAACCTGTTGCAT (site GGTGCTCCTTT) — what was its recombinant barcode read abundance (log10)? 0.0242

What value of recombinant barcode read abundance (log10) has been reported for the following sequence? GTGAACCCTTGGGTTCTAACCTGTTGCAG (site GTGAACCCTCT) 2.11

// query recombinant barcode read abundance (log10) value for entry GTGTACCCTTGGGTTCTAACCTGTTGCGA (site GTGTACCCTCC) 0.0447

# query: recombinant barcode read abundance (log10) of entry GTACTGCCTTGGGTTCTAACCTGTTGCCT (site GTACAGCCTAG) 0.52

What measured recombinant barcode read abundance (log10) goes with TAGACTACTTGGGTTCTAACCTGTTGCTA (site TAGACTACTTA) ? 0.268

Look at this sequence and give its reported recombinant barcode read abundance (log10). GTATGACCTTGGGTTCTAACCTGTTGCCT (site GTATGATCTAG) 0.217

Which measured recombinant barcode read abundance (log10) value corresponds to CGTTCTCCTTGGGTTCTAACCTGTTGCCT (site GGTTCTCCTAG) ? 0.0547

Consider the sequence TACCCATCTTGGGTTCTAACCTGTTGCCT (site TACCCATCTAG) and give its measured recombinant barcode read abundance (log10). 0.862
